src = paper PMC7996328

target: 5-HT1A receptor (Rattus norvegicus, UniProt P19327); construct: Hippocampal homogenates (15 μg/mL) were added to each tube as the 5-HT1A receptor source; from tissue; host or cells: rat hippocampus (male Sprague-Dawley), membrane homogenate; experiment: Antagonist activity for the 5-HT1A receptor, [35S]GTPγS assay in hippocampal homogenates; format: biochemical; conditions: antagonistic activity, 8-OH-DPAT 1.4 × 10^−7 M, mean ± SEM
Sequence (P19327 whole entry): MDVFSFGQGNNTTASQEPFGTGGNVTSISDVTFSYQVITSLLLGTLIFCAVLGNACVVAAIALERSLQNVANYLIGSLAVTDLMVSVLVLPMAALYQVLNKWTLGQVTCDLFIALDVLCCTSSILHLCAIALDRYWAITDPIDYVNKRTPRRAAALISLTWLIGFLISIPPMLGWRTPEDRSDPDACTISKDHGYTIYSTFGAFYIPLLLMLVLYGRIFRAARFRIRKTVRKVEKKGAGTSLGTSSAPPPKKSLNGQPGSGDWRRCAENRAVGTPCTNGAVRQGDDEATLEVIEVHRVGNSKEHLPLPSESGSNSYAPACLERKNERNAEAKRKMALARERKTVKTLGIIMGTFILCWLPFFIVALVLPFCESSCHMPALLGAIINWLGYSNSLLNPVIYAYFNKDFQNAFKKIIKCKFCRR
Field: label. Allowed values: true (1) (EC50 < 50000 nM) or false (0) (EC50 >= 50000 nM).

smilesRepr: CC(=O)c1c(C)cc2oc(=O)cc(C)c2c1OCCN1CCN(c2cccc(F)c2)CC1
classLabel: true (1)
//
smilesRepr: COc1cccc(N2CCN(CCOc3ccc4c(C)cc(=O)oc4c3C(C)=O)CC2)c1
classLabel: true (1)
//
smilesRepr: CC(=O)c1c(C)cc2oc(=O)cc(C)c2c1OCCCCCN1CCN(c2cccc(Cl)c2Cl)CC1
classLabel: true (1)
//
smilesRepr: CC(=O)c1c(OCCCCCN2CCN(c3cccc(Cl)c3Cl)CC2)ccc2c(C)cc(=O)oc12
classLabel: false (0)
//
smilesRepr: CC(=O)c1c(C)cc2oc(=O)cc(C)c2c1OCCN1CCN(c2cc(C)ccc2C)CC1
classLabel: false (0)
//
smilesRepr: CC(=O)c1c(C)cc2oc(=O)cc(C)c2c1OCCCCCN1CCN(c2cc(C)ccc2C)CC1
classLabel: true (1)
//
smilesRepr: CC(=O)c1c(OCCN2CCN(c3cc(C)ccc3C)CC2)ccc2c(C)cc(=O)oc12
classLabel: false (0)
//
smilesRepr: CC(=O)c1c(OCCCCCN2CCN(c3cc(C)ccc3C)CC2)ccc2c(C)cc(=O)oc12
classLabel: true (1)
//
smilesRepr: CC(=O)c1c(C)cc2oc(=O)cc(C)c2c1OCCCCCN1CCN(c2ccccc2F)CC1
classLabel: true (1)
//
smilesRepr: Cc1cc(C)cc(N2CCN(CCCCCOc3cc(C)cc4oc(=O)cc(C)c34)CC2)c1
classLabel: false (0)
